- target entity: human TrkA (Homo sapiens, UniProt P04629)
- Construct: purchased Lifetechnologies PV3144
- Sequence (P04629 33-796): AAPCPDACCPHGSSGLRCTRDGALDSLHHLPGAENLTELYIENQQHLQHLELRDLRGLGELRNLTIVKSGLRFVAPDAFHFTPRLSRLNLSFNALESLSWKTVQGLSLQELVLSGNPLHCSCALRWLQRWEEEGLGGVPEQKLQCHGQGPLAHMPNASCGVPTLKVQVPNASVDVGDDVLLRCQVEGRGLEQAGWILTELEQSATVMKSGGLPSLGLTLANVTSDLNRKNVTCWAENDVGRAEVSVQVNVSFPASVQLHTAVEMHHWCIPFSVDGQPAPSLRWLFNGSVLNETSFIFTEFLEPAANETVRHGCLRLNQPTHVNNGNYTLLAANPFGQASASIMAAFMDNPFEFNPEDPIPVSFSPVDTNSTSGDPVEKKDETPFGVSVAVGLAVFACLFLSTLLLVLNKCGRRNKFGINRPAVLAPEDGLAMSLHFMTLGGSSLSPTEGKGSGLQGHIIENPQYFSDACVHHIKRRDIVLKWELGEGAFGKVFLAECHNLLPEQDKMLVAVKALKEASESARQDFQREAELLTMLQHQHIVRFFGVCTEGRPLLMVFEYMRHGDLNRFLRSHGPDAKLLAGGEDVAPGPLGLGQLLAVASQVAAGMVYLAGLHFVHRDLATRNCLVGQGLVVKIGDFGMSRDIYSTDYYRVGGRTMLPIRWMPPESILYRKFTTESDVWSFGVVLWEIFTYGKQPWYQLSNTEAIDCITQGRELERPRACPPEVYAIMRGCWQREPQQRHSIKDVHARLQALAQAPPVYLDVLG
- protocol: Test Example 2: Human TrkA Inhibition Assay
- Format: biochemical
- applied conditions: human TrkA inhibition, Test Example 2; class symbols A/B/C; read-out: IC50_nM
readout type: IC50

COCC(C(=O)N(C)C)N1C[C@@H](NC(=O)Nc2c(C)c(-c3cnn(C)c3)nn2-c2ccccc2)[C@H](c2ccc(F)c(F)c2)C1 (stereo partly drawn) [Compound I-155] :: > 1000 nM

Look at each compound and report its IC50.
1. Cc1c(-c2cnn(C)c2)nn(-c2ccccc2)c1NC(=O)N[C@@H]1CN(c2nnn(C)n2)C[C@H]1c1ccc(F)c(F)c1
2. COCCN1C[C@@H](NC(=O)Nc2c(C)c(-c3cnn(C)c3)nn2-c2ccccc2)[C@H](c2nc3ccccc3o2)C1 (racemic)
3. COCOCCN1C[C@@H](NC(=O)Nc2c(C)c(-c3cnn(C)c3)nn2-c2ccccc2)[C@H](c2ccc(F)c(F)c2)C1
4. COCC(C(=O)N(C)OC)N1C[C@@H](NC(=O)Nc2c(C)c(-c3cnn(C)c3)nn2-c2ccccc2)[C@H](c2ccc(F)c(F)c2)C1 (stereo partly drawn)
5. COCCN1C[C@@H](NC(=O)Nc2c(C)c(-c3cnn(C)c3)nn2-c2ccccc2)[C@H](c2cccc(-c3ccoc3)c2)C1 (racemic)
6. COCCOCCN1C[C@@H](NC(=O)Nc2c(C)c(-c3cnn(C)c3)nn2-c2ccccc2)[C@H](c2ccc(F)c(F)c2)C1
7. COCCN1C[C@@H](NC(=O)Nc2c(C)c(-c3cnn(C)c3)nn2-c2ccccc2)[C@H](c2cccc(-c3cccnc3)c2)C1 (racemic)
8. COCCN1C[C@@H](NC(=O)Nc2c(C)c(-c3cnn(C)c3)nn2-c2ccccc2)[C@H](c2ccc3ncsc3c2)C1 (racemic)

1. > 1000 nM
2. > 1000 nM
3. 100 to 1000 nM
4. > 1000 nM
5. < 100 nM
6. 100 to 1000 nM
7. > 1000 nM
8. < 100 nM

Would you mind listing IC50 for each of the following compounds?
1. COCCC1C[C@@H](NC(=O)Nc2c(C)c(-c3cnn(C)c3)nn2-c2ccccc2)[C@H](c2ccccc2)C1 (stereo partly drawn) [Compound I-85]
2. COCCN1C[C@@H](NC(=O)Nc2c(C)c(-c3cnn(C)c3)nn2-c2ccccc2)[C@H](c2cccc(C3=CCCCC3)c2)C1 (racemic)

1: < 100 nM; 2: > 1000 nM

Short answer for COCCN1C[C@@H](NC(=O)Nc2c(C)c(-c3cnn(C)c3)nn2-c2ccccc2)[C@H](c2nc3ccccc3s2)C1 (racemic) : IC50 was > 1000 nM

* * *

- target entity: human TrkA (Homo sapiens, UniProt P04629)
- Construct: purchased Lifetechnologies PV3144
- protocol: Test Example 2: Human TrkA Inhibition Assay
- Format: biochemical
- applied conditions: human TrkA inhibition, Test Example 2; class symbols A/B/C; read-out: IC50_nM
readout type: IC50

I have 4 compounds here; please give me IC50 for each one.
1. CC(=O)NCCN1C[C@@H](NC(=O)Nc2c(C)c(-c3cnn(C)c3)nn2-c2ccccc2)[C@H](c2ccc(F)c(F)c2)C1
2. Cc1c(-c2cnn(C)c2)nn(-c2ccccc2)c1NC(=O)N[C@@H]1CN(CCNC(=O)OC(C)(C)C)C[C@H]1c1ccc(F)c(F)c1
3. Cc1c(-c2cnn(C)c2)nn(-c2ccccc2)c1NC(=O)N[C@@H]1CN(CC(F)(F)F)C(=O)[C@H]1c1ccc(F)c(F)c1
4. Cc1c(-c2cnn(C)c2)nn(-c2ccccc2)c1NC(=O)N[C@@H]1CN(Cc2ccc(C#N)o2)C[C@H]1c1ccc(F)c(F)c1

["> 1000 nM", "> 1000 nM", "> 1000 nM", "< 100 nM"]

For each of the compounds below, note its IC50.
1. CC(=O)N1C[C@@H](NC(=O)Nc2c(C)c(-c3cnn(C)c3)nn2-c2ccccc2)[C@H](c2ccc(F)c(F)c2)C1
2. COC(=O)NCCN1C[C@@H](NC(=O)Nc2c(C)c(-c3cnn(C)c3)nn2-c2ccccc2)[C@H](c2ccc(F)c(F)c2)C1
3. COCCN1C[C@@H](NC(=O)Nc2c(C)c(-c3cnn(C)c3)nn2-c2ccccc2)[C@H](c2cccc(/C=C/c3ccccc3)c2)C1 (racemic)
4. Cc1c(-c2cnn(C)c2)nn(-c2ccccc2)c1NC(=O)N[C@@H]1CN(C=O)C[C@H]1c1ccc(F)c(F)c1
5. COCCN1C[C@@H](NC(=O)Nc2c(C)c(-c3cnn(C)c3)nn2-c2ccccc2)[C@H](c2cccc(-c3cccc(C#N)c3)c2)C1 (racemic)
6. COC(=O)[C@@H]1C[C@@H](NC(=O)Nc2c(C)c(-c3cnn(C)c3)nn2-c2ccccc2)[C@H](c2ccc(F)c(F)c2)N1 (racemic)

1. > 1000 nM
2. > 1000 nM
3. < 100 nM
4. > 1000 nM
5. 100 to 1000 nM
6. > 1000 nM

List reported IC50 for each of these compounds:
1. COCCN1CCC(c2ccc(F)c(F)c2)C(NC(=O)Nc2c(C)c(-c3cnn(C)c3)nn2-c2ccccc2)C1 (stereo not shown)
2. Cc1c(-c2cnn(C)c2)nn(-c2ccccc2)c1NC(=O)N[C@@H]1CN(C2COC2)C[C@H]1c1ccc(F)c(F)c1
3. Cc1c(-c2cnn(C)c2)nn(-c2ccccc2)c1NC(=O)N[C@@H]1CN(CO)C[C@H]1c1ccc(F)c(F)c1 (racemic)

1: > 1000 nM; 2: 100 to 1000 nM; 3: > 1000 nM

Cited source: patent US10532985B2
